MEASUREMENT NAME: melting point

Hi, could you look up melting point for each item in my list?
1. CCCn1c(=O)cc(OCC)n(Cc2ccc(-c3ccccc3-c3nnn[nH]3)cc2)c1=O
2. CCC(CC)Nc1cc(C)nc(Cl)c1C(=O)OC
3. O=Cc1c[nH]c2cc(F)c(OCc3ccccc3)cc12
4. COc1ccc(-c2nc3n(c2-c2ccncc2)CCS3=O)cc1 (stereo unspecified)
5. NC(=O)c1coc2c1C(=O)CC(c1ccccc1)C2 (stereo unspecified)
6. CC(=O)N1CCC(=O)C(C(c2ccc(C)cc2)c2ccc(C)cc2)C1 (stereo unspecified)

["108 to 119 °C", "82 to 84 °C", "190 °C", "165 to 170 °C", "252 to 253 °C", "142 to 144 °C"]

====

Task for the reader: assign each of the following compounds its reported melting point.

COMPOUND	MEASUREMENT NAME	TEST RESULT
CCC1Cc2cc(OCC(=O)O)c(Cl)c(Cl)c2C1O (configuration not stated)	melting point	121 to 122 °C
Nc1ccsc1[N+](=O)[O-]	melting point	159 °C
CCOc1ccc(CN2CCc3cc(O)ccc3C2)cc1OCC	melting point	150 to 154 °C
O=C1c2cc([N+](=O)[O-])ccc2CCC1Br (configuration not stated)	melting point	94 to 96 °C
CC(C)(C)C(NC(=O)COc1ccccc1)Nc1c(Nc2cccnc2)c(=O)c1=O (configuration not stated)	melting point	227 to 228 °C
Cn1cc(-c2ccccc2)c(C(=O)NCCNC(=O)OC(C)(C)C)n1	melting point	145 °C
COc1ccc(S(=O)(=O)c2c(C(C)C)cn3cccc(C)c23)cc1	melting point	103 °C
COC(=O)C(C)NC(=O)NCCCCC1CCSS1 (configuration not stated)	melting point	72 to 82 °C
CCOC(=O)c1c(N2CCN(C(=O)c3cccs3)CC2)c2sccc2n(CC(=O)c2ccccc2)c1=O	melting point	240 °C
O=C(NCCc1ccccc1)[C@@H]1Cc2ccccc2N1	melting point	112 to 116 °C

Hi, could you look up melting point for each item in my list?
1. O=C(CNC(=O)c1cccc(Cl)c1)c1ccsc1
2. CCOC(=O)CNc1ncccc1NC(=O)c1ccc(Br)cc1
3. CC(=NOCC(=O)O)c1ccc(Cl)cc1
4. CCN(CC)C(=O)Oc1ccc2ccccc2c1
5. Cc1ccc(-c2nc3ccc(C(C)(C)CNC=O)cc3[nH]2)cc1

["137 to 140 °C", "153 to 154 °C", "116 °C", "51 to 53 °C", "193 to 195 °C"]

Hi, could you look up melting point for each item in my list?
1. CCc1cc2c3c(cc(C)c2[nH]c1=O)CC(C)(CN=[N+]=[N-])O3 (configuration not stated)
2. COCCOCc1c(CO)sc2c(=O)c(C(=O)NCc3ccc(Cl)cc3)cn(C)c12
3. CC(C)c1ccc(C2(O)C(=O)c3ccccc3C2=O)c(OC(=O)C=Cc2ccccc2)c1
4. C=C1CC(Cn2cc(C)c(=O)[nH]c2=O)(c2ccc(-c3ccccc3)cc2)OC1=O (configuration not stated)
5. OC(=S)CCc1cccc(Br)c1

["211 to 212 °C", "167 to 168 °C", "95 to 97 °C", "217 to 219 °C", "90 to 91 °C"]

Hi, could you look up melting point for each item in my list?
1. COC(=O)c1cccc(-c2nnc(-c3ccc(-c4cccc(C)c4)cc3)o2)c1
2. CCCCOCCOc1ccc(-c2ccc(-n3cccn3)c(C=C(C)C(=O)O)c2)cc1

["147 to 148 °C", "132 to 134 °C"]

====

Task for the reader: assign each of the following compounds its reported melting point.

# annotated cases, reported melting point shown
COMPOUND	melting point
Cc1cccc(C2(O)CCN(C)CC2)c1	86 to 90 °C
CCOC(=O)Nc1c(OC)cc(CC(C#N)=CNc2ccccc2)cc1OC	150 to 151 °C
COc1ccc(-c2cc(-c3ccccc3)c(-c3ccccc3)s2)c(OC)c1	107 to 110 °C

Hi, could you look up melting point for each item in my list?
1. CCOC(=O)/C=C(C)/C(F)=C/C=C(C)/C=C/c1c(Cl)cc(OC)c(C)c1Cl
2. C=CCOC(=O)C1=C2c3ccccc3CC[C@@H]2[C@@H]2[C@@H]([C@@H](C)O)C(=O)N12
3. C#CCN(Cc1ccc2nc[nH]c(=O)c2c1)c1ccc(C(C)=O)cc1
4. CCN(CC)c1cc(C)nc(-c2ccncc2)n1
5. COC(=O)C1CCCCc2c1ncn2C(c1ccccc1)(c1ccccc1)c1ccccc1 (stereo not given)
6. C=CCSC[C@H](NC(=O)OC(C)(C)C)C(=O)OC

127 to 132 °C
133 to 134 °C
197 to 199 °C
205 to 208 °C
161 to 163 °C
37 to 38 °C

The compound COc1c(Cl)ccc(-c2nc(C(=O)OC(C)C)c(Cl)c(N)c2F)c1F showed melting point equal to 109 to 111 °C

====

Task for the reader: assign each of the following compounds its reported melting point.

COMPOUND	TEST RESULT
O=c1ccn(CCO)c(C(O)c2ccccc2F)c1OCc1ccccc1 (stereo unspecified)	164 to 166 °C
Cc1oncc1C(=O)N1CCSCC1	64.5 to 65 °C
O=C(c1ccc(Sc2ccccc2)cc1)c1ccc(O)cc1O	117 to 118 °C
CC(=O)Nc1ccc(S(=O)(=O)Cc2cccc(OC(C)=O)c2)c2ccc(C#N)nc12	229 to 231 °C
O=C(N1CCOCC1)C12CC(CN1)C2	97.5 to 98 °C
CCSC1=NCC(O)CN1 (stereo unspecified)	106 to 108 °C
O=c1ccn2ncc(-c3cccs3)c2[nH]1	231 to 232 °C
CC(C)CNC(=O)c1c[nH]c2ncc(-c3nn(C)c4cc(F)ccc34)nc12	285 to 287 °C
C[C@@H](n1cnc2cc(-c3ccc(N)cc3)sc2c1=O)[C@](O)(Cn1cncn1)c1ccc(F)cc1F	184 to 186 °C
C=CCc1cc2c(c(CC=C)c1O)CCC(=O)N2CCCNC(=O)CCl	152 to 154 °C

// below: melting point requested for another compound
The compound CC(=O)OCC=C(C)CS(=O)(=O)c1ccccc1 showed melting point equal to 86 to 92 °C

====

Task for the reader: assign each of the following compounds its reported melting point.

# annotated cases, reported melting point shown
COMPOUND	melting point
CCC(C(N)=O)c1c(C(O)(C(F)(F)F)C(F)(F)F)ccc2ccccc12 (centres undefined)	189 to 190 °C
O=C(Nc1ccc(F)cn1)c1ccc(NCc2ccccc2)nc1	167 to 168 °C
FC(F)(F)c1cccc(C2=CCN(CCc3ccc4cc[nH]c4c3)CC2)c1	168 to 169 °C
C=CCC(C(=O)O)c1ccc(C(=O)c2cccs2)cc1 (centres undefined)	117 °C

Hi, could you look up melting point for each item in my list?
1. CC(=O)c1ccc(C2CCC(CC(=O)NC3CCN(Cc4ccc(Cl)c(Cl)c4)CC3)CC2)cc1 (centres undefined)
2. CN1CCC(Nc2ncc3ncnc(Nc4ccc(Oc5ccccc5)cc4)c3n2)CC1
3. C#CCn1nc(-c2cc(C(C)(C)C)c(O)c(C(C)(C)C)c2)c2cccnc21
4. S=C1NCC2c3ccccc3Cc3ccccc3N12 (centres undefined)

168 °C
157 °C
172 to 174 °C
222 to 224 °C

====

MEASUREMENT NAME: melting point

# annotated cases, reported melting point shown
COMPOUND	MEASUREMENT NAME	TEST RESULT
O=C1CCC(N2Cc3c(OCc4ccc(CN5CCN(c6ccccn6)CC5)cc4)cccc3C2=O)C(=O)N1 (stereo unspecified)	melting point	165 to 167 °C
CC1(C(=O)O)CCc2cc(O)ccc2O1 (stereo unspecified)	melting point	190 to 192 °C
COc1ccc(CNn2c(=O)ccc3cnc(SC)nc32)cc1Cl	melting point	189 to 190 °C

Hi, could you look up melting point for each item in my list?
1. ClCc1c(Cl)c(Cl)c(Cl)c(CCl)c1Cl
2. CS(=O)(=O)c1ccc(-c2cnn(-c3ccc(F)c(F)c3)c(=O)c2C2CCCCC2)cc1
3. Cc1c(-c2ccc(O)cc2)n(Cc2ccc(OCCCN3CCCCC3)cc2)c2ccc(O)cc12
4. COC(=O)c1cc2cccc(OCc3cccnc3)c2o1

1. 135 to 138 °C
2. 80 to 83 °C
3. 125 to 130 °C
4. 117 to 118 °C

Hi, could you look up melting point for each item in my list?
1. O=C(OCC1OC(n2cnc3c(NCC(c4ccccc4)c4ccccc4)ncnc32)C(OC(=O)c2ccccc2)C1OC(=O)c1ccccc1)c1ccccc1 (stereo unspecified)
2. CSc1ncc(C(C)O)c(N)n1 (stereo unspecified)

1: 60 to 75 °C; 2: 140 to 142 °C

Hi, could you look up melting point for each item in my list?
1. CCCCNc1ccc(C(=O)O)cc1N
2. CC(C)c1cc([N+](=O)[O-])cc(C(C)C)c1OS(N)(=O)=O
3. O=C(O)c1c[nH]c2c1C(=O)CCCC2
4. Cc1cc2nc(Cl)c(Cl)nc2c([N+](=O)[O-])c1Cl
5. CC1=C(C(=O)c2ccccc2F)C(=O)C2C=CC=CC2C1=O (stereo unspecified)
6. COc1ccccc1OCCCc1oc(-n2cnc(-c3ccccc3)c2-c2ccccc2)nc1-c1ccc(Cl)cc1
7. COc1ccc(N2C(=O)C(=CN(C)C)c3ccccc32)cc1F

["158 °C", "163 to 167 °C", "225 to 227 °C", "121 to 122 °C", "157 to 158 °C", "118 to 119 °C", "113 to 114 °C"]
